# System Under Test: Histone deacetylase 1 (Homo sapiens, UniProt Q13547)
# Sequence (Q13547 whole entry): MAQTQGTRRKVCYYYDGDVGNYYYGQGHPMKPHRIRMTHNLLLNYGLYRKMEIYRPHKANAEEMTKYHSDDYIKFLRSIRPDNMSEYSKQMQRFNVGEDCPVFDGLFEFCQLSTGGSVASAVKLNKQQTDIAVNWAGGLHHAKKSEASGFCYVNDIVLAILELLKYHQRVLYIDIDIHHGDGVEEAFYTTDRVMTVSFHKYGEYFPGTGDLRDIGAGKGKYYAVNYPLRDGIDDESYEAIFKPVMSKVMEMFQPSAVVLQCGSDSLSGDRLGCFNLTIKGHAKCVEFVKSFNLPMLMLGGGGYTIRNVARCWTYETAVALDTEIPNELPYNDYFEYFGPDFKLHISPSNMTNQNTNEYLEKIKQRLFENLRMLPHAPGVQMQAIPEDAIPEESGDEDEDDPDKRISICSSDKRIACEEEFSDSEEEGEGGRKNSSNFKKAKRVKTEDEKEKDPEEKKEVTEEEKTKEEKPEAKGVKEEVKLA
# Measurement Notes: Inhibition of human KDAC1 at 30 uM using substrate A after 60 mins by fluorescence assay relative to control

Smiles Input	inhibition, %
O=C(O)C[C@H]1N=C(c2ccccc2)c2ccccc2NC1=O	0.74
CC(C)C[C@@H]1N=C(c2ccccc2)c2ccccc2N(CCCCC(=O)O)C1=O	3.1
COC(=O)CCCCN1C(=O)[C@H](COC(C)(C)C)N=C(c2ccccc2)c2ccccc21	0.36
CC(C)(C)OC(=O)C[C@@H]1N=C(c2ccccc2)c2ccccc2NC1=O	9.6
O=C(O)CCCCN1C(=O)CN=C(c2ccccc2)c2ccccc21	6.45
O=C(O)CC[C@@H]1N=C(c2ccccc2)c2ccccc2N(CCCCC(=O)NO)C1=O	48.1
O=C(O)CCCCN1C(=O)[C@H](CCC(=O)NC(c2ccccc2)(c2ccccc2)c2ccccc2)N=C(c2ccccc2)c2ccccc21	3.58
CSCC[C@@H]1N=C(c2ccccc2)c2ccccc2N(CCCCC(=O)NO)C1=O	81.6
O=C(C[C@H]1N=C(c2ccccc2)c2ccccc2NC1=O)NO	9.14
O=C(CCCCN1C(=O)[C@H](Cc2ccccc2)N=C(c2ccccc2)c2ccccc21)NO	75

The origin of these recorded values is ChEMBL document CHEMBL3997794.
